assay: yeast display, Sf9 membrane polyspecificity reagent, FACS + sequencing; frameworks hold sequencing errors
ENDPOINT_LABEL: polyreactivity (PSR sort gate)

INSERT INTO assay_data (residue_codes, endpoint_label, measured_value) VALUES
  ('QVQLVESGGGLVQAGGSLRLSCAASGRIFDYYTMGWSRQAPGKVRELVAAISSGGRTYYADSVKGRFTISRDNAKNTVYLQMNSLKPEDTAVYYCNALDTRHTYTYTGGKRFPYDHWGQGTQVTVSS', 'polyreactivity (PSR sort gate)', 'low polyreactivity'),
  ('QVHLVESGGGLVQAGGSLRLSCAATGLIFPRYAMGWSRQAPGKEREMVAAITRGGSTYYADSVKGRFTISRDNAKNTVYLQMYSLKPEDTAVYYCNADYSPSTWYLYYSLYYYWGQGTQVTVSS', 'polyreactivity (PSR sort gate)', 'low polyreactivity');
